# Test system: CP266
# assay: qHTS profiling for inhibitors of Plasmodium falciparum proliferation (AID 504749); also: nearly all actives have a fitted effect of over 60% in size
# condition_parameters: P. falciparum in erythrocytes, SYBR Green DNA, 72 h; series mostly up to 28.7 µM
Inconclusive results are not listed. Calls of active or inactive are those of the source. Calls follow the shape of the dose curve; as a rule, active = well fitted inhibition curve with a large enough effect; inconclusive = small, poorly fitted or top-dose-only effect; inactive = flat fitted curve, though single readings scatter.
Please state which outcome applies, choosing from active, inactive

Example cases with answers are listed next.
>  <compound>
O=C(O)C(O)c1ccccc1 (stereo unspecified)

>  <group>
inactive

$$$$
>  <compound>
Cc1cnc(C(=O)O)cn1

>  <group>
inactive

$$$$
>  <compound>
CN[C@H](C)CCC=C(C)C

>  <group>
active

$$$$
>  <compound>
C=C1CC[C@H](O)C/C1=C/C=C1\CCC[C@]2(C)[C@@H]([C@H](C)CCCC(C)(C)O)CC[C@@H]12

>  <group>
inactive

$$$$
>  <compound>
Cc1c(C)c2c(c(C)c1O)CCC(C)(CCCC(C)CCCC(C)CCCC(C)C)O2 (stereo unspecified)

>  <group>
inactive

$$$$

Assay result, entry CCOC(=O)C(CCc1ccccc1)NC(C)C(=O)N1Cc2cc(OC)c(OC)cc2CC1C(=O)O (stereo unspecified) — outcome?
inactive

Assay result, entry NC(CSSCC(N)C(=O)O)C(=O)O (stereo unspecified) — outcome?
inactive

Assay result, entry C[n+]1c2cc(N)ccc2cc2ccc(N)cc21 — outcome?
active

Assay result, entry CC(C)(C)NC[C@H](O)CSc1nc(-c2ccc(C(N)=O)s2)cs1 — outcome?
inactive

Assay result, entry OCCOC[C@H]1O[C@H](OCCO)[C@H](OCCO)[C@@H](OCCO)[C@@H]1OCCO (tested in a mixture with another compound) — outcome?
inactive

---

Each record here notes measured activity change, negative = inhibition.
# assay: AP1 Signaling Pathway (AID 357);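 also: ME-180 reporter cells stimulated with EGF at its EC50 level; % is scaled to controls: 0 for no effect and ±100 for the full control effect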
# condition_parameters: ME-180 (cervical carcinoma) AP-1-bla reporter, EGF-induced, beta-lactamase ratio, 5 h; at 17.2 µM (top of the series) unless noted
Inconclusive results are not listed.
// return numeric value only (unit: %, not printed)

>  <compound>
CC(NC(=O)NC(N)=O)(C(F)(F)F)C(F)(F)F

>  <activity change, negative = inhibition, %>
0.637

$$$$
>  <compound>
CCOc1ccc(Cn2c(O)cc(=O)[nH]c2=O)cc1

>  <activity change, negative = inhibition, %>
11.9

$$$$
>  <compound>
CN(C)c1nc(OCCOC(=O)Nc2ccc(Cl)cc2Cl)nc(N(C)C)n1

>  <activity change, negative = inhibition, %>
-3.73

$$$$
>  <compound>
Nc1cccc(C(=O)O)c1

>  <activity change, negative = inhibition, %>
8.42

$$$$
>  <compound>
COc1ccccc1C1C(C#N)=C(N)Oc2cc(C)n(Cc3ccccn3)c(=O)c21 (centres undefined)

>  <activity change, negative = inhibition, %>
-12.5

$$$$
>  <compound>
O=S(=O)(c1cccc2nsnc12)N1CCN(C/C=C/c2ccccc2)CC1

>  <activity change, negative = inhibition, %>
-6.7

$$$$

Kindly consider the entry below.
Note to self: activity change, negative = inhibition recorded for COc1cc(Cn2ccnc2)c(OC)cc1Cn1ccnc1 was 5.72

---

# Test system: CP329
# assay: qHTS profiling for inhibitors of Plasmodium falciparum proliferation (AID 504749); also: nearly all actives have a fitted effect of over 60% in size
# condition_parameters: P. falciparum in erythrocytes, SYBR Green DNA, 72 h; series mostly up to 28.7 µM
# Procedure: NIH National Institute of Allergy and Infectious Diseases [NIAID] NIH Chemical Genomics Center [NCGC] […] Because mature erythrocytes lack DNA, only Plasmodium-derived DNA is detected. NCGC Assay Protocol Summary: The SYBR Green viability assay was adapted from a method described previously (Plouffe et al., 2008). […] The following morning, fluorescence intensity at 485(14) nm excitation and 535(25) nm emission wavelengths was measured on an EnVision (Perkin Elmer) plate reader. […]
Inconclusive results are not listed. Activity calls are given as the source filed them. The call rests on the fitted dose curve; in most records, active means well fitted inhibition curve with a large enough effect; inconclusive means small, poorly fitted or top-dose-only effect; inactive means flat fitted curve, though single readings scatter.
Please state which outcome applies, choosing from active, inactive

>  <molecule>
Nc1nc(F)nc2c1ncn2[C@@H]1O[C@H](CO)[C@@H](O)[C@H]1O

>  <group>
inactive

$$$$

Assay result, entry C=C1CCC(O)C/C1=C/C=C1\CCC[C@]2(C)[C@@H]([C@H](C)/C=C/[C@H](C)C(C)C)CC[C@@H]12 (stereo partly specified) — outcome?
inactive

Assay result, entry CC[C@H]1OC(=O)[C@H](C)C(=O)[C@H](C)[C@@H](OC2O[C@H](C)C[C@H](N(C)C)[C@@H]2O)[C@@](C)(OC)C[C@@H](C)C(=O)[C@@H](C)C2N(CCCCn3cnc(-c4cccnc4)c3)C(=O)O[C@@]21C (stereo partly specified) — outcome?
inactive

Assay result, entry CCCCC(=O)O[C@]1(C(=O)CO)CCC2C3CCC4=CC(=O)CCC4(C)C3C(O)CC21C (stereo partly specified) — outcome?
inactive

Assay result, entry Cn1cc(C(=O)[C@@H]2CCc3[nH]cnc3C2)c2ccccc21 — outcome?
inactive

Assay result, entry COc1cccc2c1C(=O)c1c(O)c3c(c(O)c1C2=O)C[C@@](O)(C(=O)CO)C[C@@H]3OC1CC(N)C(O)C(C)O1 (stereo partly specified) — outcome?
active

Assay result, entry CC(=O)CC(c1ccccc1)C1C(=O)Oc2ccccc2C1=O (stereo unspecified) — outcome?
inactive

Assay result, entry CCCC(=O)O[C@]1(C(=O)COC(C)=O)CC[C@H]2C3C[C@H](F)C4=CC(=O)C=CC4(C)[C@@]3(F)[C@@H](O)CC21C (stereo partly specified) — outcome?
inactive

Assay result, entry C=NC(C(=O)NC1C(=O)N2C1SC(C)(C)C2C(=O)O)c1ccccc1 (stereo unspecified) — outcome?
inactive

Assay result, entry CC1(C)CC1C(=O)N/C(=C/CCCCSCC(N)C(=O)O)C(=O)O (stereo unspecified) — outcome?
inactive

Assay result, entry CC1(C)OC[C@@H]2O[C@@]3(C(=O)O)OC(C)(C)O[C@@H]3[C@@H]2O1 — outcome?
inactive

Assay result, entry C#C[C@]1(O)CC[C@H]2[C@H]3[C@H](CC[C@@]21C)C1=C(CC(=O)CC1)C[C@@H]3C — outcome?
inactive

Assay result, entry CCCCCCCCCCCCCCCC(=O)OCC(COP(=O)(O)OCC[N+](C)(C)C)OC(=O)CCCCCCCCCCCCCCC (stereo unspecified) — outcome?
inactive

Assay result, entry Nc1nc(Cl)nc2c1ncn2[C@@H]1O[C@H](CO)[C@H](O)C1F (stereo partly specified) — outcome?
inactive

Assay result, entry O=c1ccn(C2OC(COP(=O)(O)OC3C(CO)OC(n4ccc(=O)[nH]c4=O)C3O)C(O)C2O)c(=O)[nH]1 (stereo unspecified) — outcome?
inactive

Assay result, entry CO[C@H]1OC2O[C@@]3(C)CC[C@H]4[C@H](C)CC[C@@H]([C@H]1C)[C@@]24OO3 (stereo partly specified) — outcome?
active

---

# Test system: GB4
# assay: qHTS profiling for inhibitors of Plasmodium falciparum proliferation (AID 504749); also: nearly all actives have a fitted effect of over 60% in size
# condition_parameters: P. falciparum in erythrocytes, SYBR Green DNA, 72 h; series mostly up to 28.7 µM
Inconclusive results are not listed. The source made the active and inactive calls. Calls follow the shape of the dose curve; as a rule, active = well fitted inhibition curve with a large enough effect; inconclusive = small, poorly fitted or top-dose-only effect; inactive = flat fitted curve, though single readings scatter.
Please state which outcome applies, choosing from 1 = active, 0 = inactive

>  <compound>
Cn1cc(C(=O)[C@@H]2CCc3[nH]cnc3C2)c2ccccc21

>  <group>
0

$$$$
>  <compound>
CC(C)CCCC(C)C1CC(=O)C2=C3CCC4CC(O)CCC4(C)C3CCC21C (configuration not stated)

>  <group>
0

$$$$
>  <compound>
Cc1ccccc1N1C(=O)c2cc(N)ccc2N/C1=C\F

>  <group>
0

$$$$
>  <compound>
CCCC(=O)Nc1c(I)cc(I)c(C[C@H](CC)C(=O)O)c1I

>  <group>
0

$$$$
>  <compound>
C=C(NCc1ccccc1)c1ccccc1O

>  <group>
0

$$$$
>  <compound>
COC(=O)C1C2CC3c4[nH]c5cc(OC)ccc5c4CCN3CC2CC(OC)C1OC (configuration not stated)

>  <group>
0

$$$$
>  <compound>
CCN(CC)CCOCCOC(=O)C(CC)(CC)c1ccccc1 (tested in a mixture with another compound)

>  <group>
1

$$$$
>  <compound>
C[C@]12CCC(=O)C=C1[C@@H]1C[C@H]1[C@H]1[C@@H]3[C@@H]4C[C@H]4[C@@]4(CCC(=O)O4)[C@@]3(C)CC[C@@H]12

>  <group>
0

$$$$
>  <compound>
CC1CCC(C(C)C)C(O)C1 (configuration not stated)

>  <group>
0

$$$$
>  <compound>
C[C@H]1OC(OC2C(O)[C@@H](O)C(OC3C(O)[C@@H](O)C(O)O[C@@H]3CO)O[C@@H]2CO)[C@H](O)C(O)C1N[C@H]1C=C(CO)[C@@H](O)[C@H](O)C1O (some centres not stated)

>  <group>
0

$$$$

Assay result, entry NC(C(=O)O)c1ccc(O)cc1 (configuration not stated) — outcome?
0

Assay result, entry CC1(C)SC2C(NC(=O)C(C(=O)O)c3ccccc3)C(=O)N2C1C(=O)O (configuration not stated) — outcome?
0

Assay result, entry CNC1CCc2cc(OC)c(OC)c(OC)c2-c2ccc(OC)c(=O)cc21 (configuration not stated) — outcome?
0

Assay result, entry CC1(C)C2CC[C@]1(C)[C@@H](O)C2 — outcome?
0

Assay result, entry CC(=O)NC1[C@H](O)C[C@@](O)(C(=O)O)O[C@H]1[C@H](O)[C@H](O)CO (some centres not stated) — outcome?
0
